# experiment.summary: basal MM1S mitochondrial membrane potential changes, profiling panel, cell-based, JC-1 fluorescence, 24 h, 100 nL compound (AID 1170)
# particulars: higher = more signal
Tick T if z-score is -0.8 or greater. Tick F if z-score is less than -0.8.

Study these solved cases before continuing.
C=C[C@H](COC(C)=O)N(Cc1ccc(OC(C)=O)c(OC)c1)S(=O)(=O)c1ccc(Br)cc1: F
NCCCCCCNC(=O)[C@H]1C[C@H]2C(=O)NCC(=O)N2[C@H]1c1cccc(OCCO)c1: T
O=C1O[C@H](c2ccccc2)[C@H](c2ccccc2)N2[C@H]1[C@@H](C(=O)O)[C@]1(C(=O)Nc3ccc(C#CC4=CCCCC4)cc31)[C@H]2c1ccc(OCCO)cc1: F
COCCCNC(=O)[C@@]1(CCC(=O)OC(C)(C)C)N=C(c2ccc(OCCCO)cc2)O[C@H]1c1ccccc1CN=[N+]=[N-]: T
COCCOC(=O)N1C(=O)[C@@]2(c3cc(C#CCC(C(=O)OC)C(=O)OC)ccc31)[C@H](c1ccccc1OCCO)N1[C@H](c3ccccc3)[C@H](c3ccccc3)OC(=O)[C@H]1[C@@H]2C(N)=O: F

With those in mind, consider the next compound.
Is the recorded value of z-score equal to or greater than -0.8 for this compound? `C[C@]1(C(=O)NCc2ccccc2)c2ccccc2C(=O)N(Cc2cc(F)cc(C(F)(F)F)c2)[C@H]1c1ccc(CO)cc1`
T

###

# Tested on: XIP peptide (Xip251-270) binding
# experiment.summary: small-molecule binders of XIP peptide, primary screen, biochemical, small-molecule microarray, fluorescence 635/667 nm, 0.1 µg/mL protein (AID 1182)
# particulars: fluorescent protein binding, 635 nm, higher = more signal, called active from +8 up or from −8 down
measure.name: composite z-score
Give bare numbers.

CCCCCN1CC=CC23O[C@@H]4C=CCOC(=O)[C@@H]4[C@H]2C(=O)N(CCCO)[C@@H]3C1=O (stereo partly drawn): 0.591
CC(C)(C)OC(=O)CC[C@@]1(C(=O)O)N=C(c2ccc(OCCCO)cc2)O[C@@H]1c1ccccc1N=[N+]=[N-]: 1.37

In the following, a different compound is considered.
Suppose we examine the compound `COC(=O)C(CC#Cc1ccc2c(c1)[C@]1(C(=O)N2)[C@H](c2ccc(OCCO)cc2)N2[C@H](c3ccccc3)[C@H](c3ccccc3)OC(=O)[C@H]2[C@@H]1C(=O)NC[C@H](O)c1ccccc1)C(=O)OC` ; what composite z-score value has been reported?
1.14

###

# experiment.summary: E. coli acrAB mutant growth effects, primary screen, E. coli filamentation inducers, strain DRC39, OD650, 24 h (AID 1178);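 further: growth measured as culture turbidity by optical density at 650 nm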
# particulars: higher = more signal, called active from +8 up or from −8 down
I'd appreciate it if you could supply z-score values for the items below.
Answers are plain numbers.

COC(=O)[C@@]1(Cc2ccc(OC)cc2)[C@H]2c3cc(C(=O)N4CCCC4)n(CCc4c[nH]c5cc(F)ccc45)c3C[C@H]2CN1C(=O)c1ccccc1: -0.29
COCCOC(=O)N1C(=O)[C@@]2(c3cc(C#CCC(C(=O)OC)C(=O)OC)ccc31)[C@H](c1ccccc1OCCO)N1[C@H](c3ccccc3)[C@H](c3ccccc3)OC(=O)[C@H]1[C@@H]2C(N)=O: 0.116
C=CCC(OC(C)=O)[C@@H]1[C@@H](N(Cc2ccc(-c3ccccc3)cc2)C(=O)Cc2ccc(F)cc2)c2cc(OCCCO)ccc2N1C(=O)c1ccc2ccccc2n1 (stereo partly drawn): 0.918
C=C(COC)C(=O)CC[C@H](OC(C)=O)c1cccc(OCCO)c1: -1.03
CC(=O)NCCCC[C@@H]1NC(=O)[C@@H]2C[C@H](C(=O)NCCCCCCNC(=O)CS)[C@H](c3ccc(O)cc3)N2C1=O: -0.356

I have 6 compounds here; please give me z-score for each one.
1. CCCCCN1CC=CC23O[C@@H]4/C=C\CCCOC(=O)C4[C@H]2C(=O)N(CCCCCCO)[C@@H]3C1=O (stereo partly drawn)
2. COCCCNC(=O)[C@@]1(CCC(=O)OC(C)(C)C)N=C(c2ccc(OCCCO)cc2)O[C@H]1c1ccccc1CN=[N+]=[N-]
3. C=CC[C@@]1(C(=O)O)N=C(c2ccc(OCCCO)cc2)O[C@@H]1c1ccccc1N=[N+]=[N-]
4. NCCCCCNC(=O)[C@H]1C[C@H]2C(=O)NCC(=O)N2[C@H]1c1cccc(OCCO)c1
5. O=C1OCC=C[C@H]2OC34C=CCN(c5ccc(Cl)cc5)C(=O)[C@H]3N(CCCCCCO)C(=O)[C@@H]4[C@@H]12 (stereo partly drawn)
6. [N-]=[N+]=NCc1ccccc1[C@@H]1OC(c2ccc(OCCCO)cc2)=N[C@]1(Cc1ccccc1)C(=O)N1CCCCC1

0.758
0.481
0.236
1.07
0.571
0.775

I have 2 compounds here; please give me z-score for each one.
1. CC(C)Cc1ccc(CN2CC[C@@H](NS(=O)(=O)c3ccccc3)C2)cc1
2. C=CCC(OC(C)=O)[C@@H]1[C@@H](N(Cc2ccc(-c3cccc(C(F)(F)F)c3)o2)C(=O)c2ccc(C)cc2)c2cc(OCCCO)ccc2N1C(=O)c1ccc(-c2ccccc2)cc1 (stereo partly drawn)

1: -20.5; 2: -0.456

###

# target.under.test: Pro-neuregulin-1, membrane-bound isoform (Homo sapiens)
# experiment.summary: NRG1 binders on small-molecule microarrays, primary screen, psychiatric disease protein project, biochemical, small-molecule microarray, fluorescence 635/667 (AID 1075);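 further: score combines 667 nm spot fluorescence with signal to noise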
# particulars: NRG1 binding, 635 nm fluorescence, higher = more signal
measure.name: composite z-score
Answers are plain numbers.

[N-]=[N+]=Nc1ccccc1[C@H]1OC(c2ccc(OCCCO)cc2)=N[C@@]1(CCS(=O)(=O)c1ccccc1)C(=O)O: 0.826
CC(C)C(=C=CC[C@@H](O)c1ccccc1OCCO)C[C@@H](O)c1ccccn1: 0.0795
CCOc1cc(C(O)C2C=CC3C(=O)N(c4ccccc4)C(=O)C3N2Nc2ccc([N+](=O)[O-])cc2)ccc1O (centres undefined): 0.946
COCCOC(=O)N1C(=O)[C@@]2(c3cc(C#CCCO)ccc31)[C@H](c1ccccc1OCCO)N1[C@H](c3ccccc3)[C@H](c3ccccc3)OC(=O)[C@H]1[C@@H]2C(=O)N1CCN(c2ncccn2)CC1: 1.66
CN(C)C(=O)[C@]1(CCC(=O)OC(C)(C)C)N=C(c2ccc(OCCCO)cc2)O[C@@H]1c1ccccc1N=[N+]=[N-]: 2.01
C=CCNC(=O)[C@@H]1[C@H]2C(=O)O[C@H](c3ccccc3)[C@H](c3ccccc3)N2[C@H](c2ccc(O)cc2)[C@@]12C(=O)N(C(=O)OCCOC)c1ccccc12: 1.51
CCOC(=O)C[C@H]1[C@H](OC(=O)c2ccc(-c3ccccc3)cc2)[C@@H](NC(=O)Cc2ccc(OC)cc2)c2cc(OCCCO)ccc2N1C(=O)c1ccc2ccccc2n1: 0.33
CN(C)CCCCCCNC(=O)[C@H]1C[C@H]2C(=O)N[C@@H](CCCCN)C(=O)N2[C@H]1c1ccc(O)cc1: 2.51

I have 6 compounds here; please give me composite z-score for each one.
1. Cc1ccccc1C(O)C1C=CC2C(=O)N(C)C(=O)C2N1Nc1ccccc1 (centres undefined)
2. C=CCN1C(=O)[C@]2(O[C@H](CCO)[C@@H]([Si](C)(C)c3ccc(OC)cc3)[C@@H]2C)c2cc(NC(=O)[C@H](C)O)ccc21
3. CC(C)(C)N1CC=CC23O[C@@H]4C=CCOC(=O)[C@@H]4[C@H]2C(=O)N(CCCCCO)[C@@H]3C1=O (some centres undefined)
4. CS(=O)(=O)CCOC(=O)C1=CC(c2ccc(CO)cc2)=CC(C2CC2)N(Cc2cc3c(cc2Br)OCO3)C=C1C(=O)OCCS(C)(=O)=O (centres undefined)
5. C=CCOC(=O)[C@@H]1[C@H]2C(=O)O[C@H](c3ccccc3)[C@H](c3ccccc3)N2[C@H](c2ccc(OCCOC(=O)[C@@H]3C[C@@H]4C(=O)NCC(=O)N4[C@@H]3c3cccc(OCCO)c3)cc2)[C@@]12C(=O)Nc1ccc(I)cc12
6. CC(=O)NCCCC[C@@H]1NC(=O)[C@H]2C[C@@H](C(=O)NCCCCCC[N+](C)(C)C)[C@@H](c3cccc(OCCO)c3)N2C1=O

[2.05, 1.35, 0.978, 1.78, 1.29, 1.5]

###

# experiment.summary: RPMI8226 myeloma cell viability, profiling panel, resazurin fluorescence, basal, 24 h, PK04 Diversity Set (AID 1180);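 further: RPMI8826 multiple myeloma cell line at 5000 cells per well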
# particulars: higher = more signal
measure.name: z-score
Answers are plain numbers.

Worked examples follow.
O=C1N(CCS(=O)(=O)c2ccccc2)c2ccccc2C[C@@]12COC(c1ccc(OCCCO)cc1)=N2: -0.816
CC(=O)NCCCC[C@@H]1NC(=O)[C@@H]2C[C@H](C(=O)NCCCCCCNC(=O)CS)[C@H](c3ccc(O)cc3)N2C1=O: -0.763
COc1ccc(NN2C(C(O)c3ccc(OC)c(OCc4ccccc4)c3)C=CC3C(=O)N(C4CCCCC4)C(=O)C32)cc1 (configuration not stated): 0.0424
COc1ccc([Si](C)(C)[C@@H]2[C@@H](CC(=O)N(CCO)Cc3ccccc3)O[C@]3(C(=O)N(C)c4ccccc43)[C@H]2C)cc1: -1.49
CCOC(=O)C[C@H]1[C@H](OC(=O)c2ccc(-c3ccccc3)cc2)[C@@H](NC(=O)Cc2ccc(OC)cc2)c2cc(OCCCO)ccc2N1C(=O)c1ccc2ccccc2n1: -0.893
O=C1N(CCS(=O)(=O)c2ccccc2)Cc2ccccc2C[C@]12N=C(c1ccc(OCCCO)cc1)O[C@@H]2c1ccccc1: -1.99
C=CC[C@@]1(C(=O)N2CCOCC2)N=C(c2ccc(OCCCO)cc2)O[C@@H]1c1ccccc1N=[N+]=[N-]: -1.33
C=CCOC(=O)[C@@H]1[C@H]2C(=O)O[C@H](c3ccccc3)[C@H](c3ccccc3)N2[C@H](c2ccc(OCCOC(=O)[C@@H]3C[C@@H]4C(=O)N[C@@H](Cc5ccccc5)C(=O)N4[C@@H]3c3cccc(OCCO)c3)cc2)[C@@]12C(=O)Nc1ccc(I)cc12: 0.318
[N-]=[N+]=NCc1ccccc1[C@@H]1OC(c2ccc(OCCCO)cc2)=N[C@]1(Cc1ccccc1)C(=O)N1CCCCC1: -0.94
Cc1cc(C)c(C(O)C2C=CC3C(=O)N(C)C(=O)C3N2Nc2ccccc2)c(C)c1 (configuration not stated): -1.46

I have 2 molecules here; please give me z-score for each one.
1. COc1ccc(C(=O)Nc2cccc(CN3C(=O)[C@]4(O[C@H](CC(=O)N5CCC[C@H]5CO)[C@@H]([Si](C)(C)c5ccc(OC)cc5)[C@@H]4C)c4ccccc43)c2)cc1
2. CO[C@H]1O[C@H](CO)[C@@H](OC(=O)Nc2ccc(Oc3ccccc3)cc2)[C@H](OC(=O)Nc2ccccc2)[C@H]1OC(=O)Nc1ccccc1

1: -4.84; 2: -2.48
